Data origin: ChEMBL document CHEMBL3507680

Experiment: Human HepG2 cell viability assay in 384 well format
Assay type: toxicity, cell-based
Set-up: dose 125 nL, time 70.5 hour; concentration not given beside the values
Details: HepG2 cells, read-out: Inhibition
Form field: cytotoxicity at 70.5 h (one value per entry).
Respond numerically; units are % and should not be typed.

> print(dat)
                                   compound  value.observed
1  O=C(c1ccncc1)N1CCOC2(CCCN(c3nncs3)C2)C1 (stereo unspecified)         -0.0919
2                CCc1ccc(CCn2cnc(C#N)n2)cc1           -7.83
3  Cc1nc(N)ccc1CC1COc2ccccc2C1 (stereo unspecified)              15
4  O=C(NC[C@H]1C[C@@H]2CCN1C[C@@H]2CN1CCOCC1)Nc1ccccc1           -2.16

Please give measured cytotoxicity at 70.5 h of the following entry: `CCC(=O)Nc1nnc(CCOc2ccccc2)s1`
-2.19

For the compound `Cc1cnc(N2CC[C@@H]3O[C@H](COCc4ccccn4)CC[C@@H]32)nc1` , give its measured cytotoxicity at 70.5 h value.
-1.58

Report measured cytotoxicity at 70.5 h; entry is CC(C)N(C)C(=O)C1=NOC2(CCN(C(=O)NCc3cccnc3)C2)C1 (stereo unspecified)
-9.91

Tell me cytotoxicity at 70.5 h reported for `COc1nn(C)c2c1CCCN(S(=O)(=O)c1cccs1)C2`
12.6

Hello, please tell me recorded cytotoxicity at 70.5 h for this one: `CCS(=O)(=O)N1CCc2c(CN(C)Cc3ccco3)cncc2C1`
-6.14

For the compound O=C1CC(c2cccnc2)c2c(c(C(=O)O)cn2-c2ccccc2F)N1 (stereo unspecified) , give its measured cytotoxicity at 70.5 h value.
-13.2
